Recorded measurements of pEC50, one per entry
Biological target: hGLP-1R (Homo sapiens)
Sequence (P43220 24-463): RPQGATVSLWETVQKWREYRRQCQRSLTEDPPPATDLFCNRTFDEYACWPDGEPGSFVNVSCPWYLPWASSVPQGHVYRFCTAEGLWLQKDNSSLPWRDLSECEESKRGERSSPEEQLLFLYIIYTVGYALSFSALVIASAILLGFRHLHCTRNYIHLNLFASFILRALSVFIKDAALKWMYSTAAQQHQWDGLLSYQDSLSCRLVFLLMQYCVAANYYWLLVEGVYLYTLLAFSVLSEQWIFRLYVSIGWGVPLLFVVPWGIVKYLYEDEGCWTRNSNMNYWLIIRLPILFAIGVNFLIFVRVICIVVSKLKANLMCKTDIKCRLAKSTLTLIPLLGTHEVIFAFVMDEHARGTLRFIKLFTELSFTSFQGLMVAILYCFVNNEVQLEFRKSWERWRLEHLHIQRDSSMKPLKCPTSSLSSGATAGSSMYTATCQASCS
Test: Functional cAMP activation in the presence of 0.1% casein (no HSA);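 also: intracellular cAMP rise after 30 min at 37 °C read by HTRF, normalized between buffer only (0%) and maximal control ligand (100%), four-parameter variable-slope fit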
Format: cell-based
Settings: in the presence of 0.1% casein (no HSA); geometric mean; read-out: Relative cAMP EC50, hGLP-1R
Starred links: 1 amine or outer side, 2 acyl side, 3 side chain; linkers in the order of their positions; H or OH if unused. Non-standard residues stand in square brackets, D forms with d. Groups on a side chain read outwards from the residue. No end group written: not given here. *: point of attachment. C20 diacid = O=C(O)CCCCCCCCCCCCCCCCCCC(=O)*; C18 diacid = O=C(O)CCCCCCCCCCCCCCCCC(=O)*; αMePhe(2-F) = C[C@](N)(Cc1ccccc1F)C(=O)O; γGlu = O=C(O)[C@H](CCC(=O)[*:2])N[*:1]; αMe4Pal = C[C@](N)(Cc1ccncc1)C(=O)O; αMeY = C[C@](N)(Cc1ccc(O)cc1)C(=O)O; 4Pal = N[C@@H](Cc1ccncc1)C(=O)O; αMeL = CC(C)C[C@](C)(N)C(=O)O; αMeS = C[C@](N)(CO)C(=O)O; Orn = NCCC[C@H](N)C(=O)O; AEEA = NCCOCCOCC(=O)O; Aib = CC(C)(N)C(=O)O
The value called pEC50 is obtained by taking minus log10 of the concentration in mol/L.

Illustrative cases are given below, each with its answer.
>  <Substance>
H-Y[Aib]QGTFTSDFSK[αMeL]LDKK([AEEA-γGlu-C20 diacid])AQ[Aib]AFIEWLLEGGPSSGAPPPSEG-NH2 [Example 37]

>  <Target Under Test>
hGLP-1R (Homo sapiens)

>  <Recorded Measurement>
8.78

$$$$
>  <Substance>
H-Y[Aib]QGTFTSDFSK[αMeL]LDKK([AEEA-γGlu-C20 diacid])AQ[Aib]AFIEYLLAGGPSSGAPPPGGS-NH2 [Example 16]

>  <Target Under Test>
hGLP-1R (Homo sapiens)

>  <Recorded Measurement>
8.81

$$$$
>  <Substance>
H-Y[Aib]QGTFTSD[4Pal]S[Orn][αMeL]LDKK([AEEA-γGlu-C18 diacid])AQ[αMe4Pal]AFIEYLIE[Aib]GESSGAPPPSGS-NH2 [Example 223]

>  <Target Under Test>
hGLP-1R (Homo sapiens)

>  <Recorded Measurement>
8.55

$$$$

Query block: Entry H-Y[Aib]QGTFTSD[4Pal]SQ[αMeL]LDKK([AEEA-γGlu-C18 diacid])AQ[Aib]AFIEYLLE[dA]GPSS[Aib]APPPSGT-NH2 [Example 824] : reported pEC50 = ?
Result block: 8.61

Query block: Entry H-Y[Aib]QGTFTSDFS[Orn][αMeL]LDKK([AEEA-γGlu-C20 diacid])AQ[Aib]AFIEYLLAGGPSSGAPPPSGD-NH2 [Example 81] : reported pEC50 = ?
Result block: 8.66

Query block: Entry H-Y[Aib]QGTFTSD[4Pal]SQ[αMeL]LD[Orn]K([γGlu-γGlu-C18 diacid])AQ[αMe4Pal]QFIEYLIAGGPSSGAPPPSGSEE-NH2 [Example 1005] : reported pEC50 = ?
Result block: 8.83

Query block: Entry H-Y[Aib]QGTFTSD[4Pal]S[Orn][αMeL]LDKK([Glu-γGlu-C18 diacid])AQ[αMe4Pal]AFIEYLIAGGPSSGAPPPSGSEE-NH2 [Example 1060] : reported pEC50 = ?
Result block: 8.55

Query block: Entry H-Y[Aib]QGTFTSDFS[Orn][αMeL]LDKK([AEEA-γGlu-C18 diacid])AQ[Aib]AFIEYLLAGGPSSGAPPPSGSQ-OH [Example 88] : reported pEC50 = ?
Result block: 8.46

Query block: Entry H-Y[Aib]QGTFTSDFS[Orn][αMeL]LDKK([AEEA-AEEA-γGlu-C18 diacid])AQ[Aib]AFIEYLLE[Aib]GPSSGEPPPSGS-NH2 [Example 166] : reported pEC50 = ?
Result block: 8.16

Query block: Entry H-Y[Aib]QGT[αMePhe(2-F)]TSD[4Pal][αMeS]I[αMeL]LD[Orn]K([AEEA-γGlu-C18 diacid])AQ[αMe4Pal]EFI[dE][αMeY]LVEGGPSSGAPPPESE-NH2 [Example 1156] : reported pEC50 = ?
Result block: 9.35

Query block: Entry Y[Aib]QGTFTSDFS[Orn][αMeL]LDKK([γGlu-γGlu-C18 diacid])AQ[Aib]AFIEYLLEGGPSSGAPPPSGT-NH2 [Example 260] : reported pEC50 = ?
Result block: 8.41

Query block: Entry H-Y[Aib]QGTFTSD[4Pal]SR[αMeL]LDKK([γGlu-γGlu-C18 diacid])AQ[αMe4Pal]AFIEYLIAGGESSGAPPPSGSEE-NH2 [Example 965] : reported pEC50 = ?
Result block: 8.86
